The measured values listed here are drawn from patent US6294539A.

biological target: MMP-9 (Homo sapiens, UniProt P14780); assay: MMP-9 inhibition assay (internally quenched fluorescent peptide substrate); assay type: biochemical; settings: 1 μM; purified MMP-9 enzyme, incubation at 37 C
Sequence (P14780 94-707, species assumed): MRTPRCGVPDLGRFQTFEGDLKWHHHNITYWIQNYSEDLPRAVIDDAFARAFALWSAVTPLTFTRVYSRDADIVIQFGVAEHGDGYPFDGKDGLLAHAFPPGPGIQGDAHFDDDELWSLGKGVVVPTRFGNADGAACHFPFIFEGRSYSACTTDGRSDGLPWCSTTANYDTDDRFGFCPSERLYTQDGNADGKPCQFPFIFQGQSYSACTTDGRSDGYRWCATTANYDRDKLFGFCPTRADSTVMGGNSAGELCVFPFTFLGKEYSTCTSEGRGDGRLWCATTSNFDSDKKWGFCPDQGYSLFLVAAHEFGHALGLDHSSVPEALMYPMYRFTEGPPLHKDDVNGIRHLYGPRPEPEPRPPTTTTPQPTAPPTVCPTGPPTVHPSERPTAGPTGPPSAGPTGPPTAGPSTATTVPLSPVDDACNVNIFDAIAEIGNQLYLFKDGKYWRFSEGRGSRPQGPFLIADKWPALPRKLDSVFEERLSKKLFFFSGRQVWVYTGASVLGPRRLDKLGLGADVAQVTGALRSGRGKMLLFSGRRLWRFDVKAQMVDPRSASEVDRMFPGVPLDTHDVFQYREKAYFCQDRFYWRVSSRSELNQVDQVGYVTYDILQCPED
Quantity Kind: inhibition at 1 µM (%)

Worked cases, inhibition at 1 µM given:
Compound: COc1ccc(S(=O)(=O)N(CCc2cccc(Cl)c2)CC(=O)N2CC(=O)N(Cc3cc(OC)cc(OC)c3)CC2CC(=O)NO)cc1 (stereo not shown)
Tested System: MMP-9 (Homo sapiens, UniProt P14780)
Result Unit: %
inhibition at 1 µM: 62

Compound: COc1ccc(CCN(CC(=O)N2CC(=O)N(Cc3ccc(F)cc3)CC2CC(=O)NO)S(=O)(=O)c2ccc(OC)cc2)cc1 (stereo not shown)
Tested System: MMP-9 (Homo sapiens, UniProt P14780)
Result Unit: %
inhibition at 1 µM: 42

P: COc1ccc(S(=O)(=O)N(CCc2cccc(Cl)c2)CC(=O)N2CC(=O)N(Cc3ccc(F)cc3)CC2CC(=O)NO)cc1 (stereo not shown)
Q: COc1ccc(CCN(CC(=O)N2CC(=O)N(Cc3cc(OC)cc(OC)c3)CC2CC(=O)NO)S(=O)(=O)c2ccc(OC)cc2)cc1 (stereo not shown)
Min inhibition at 1 µM? P | Q Please indicate the selected item by its label.
Q
(Q: 35%, P: 52%)
